B1: FADS1 (parent)
chain: LNFQIEHHLFPTMPRHNYHKVAPL

Variants of: B1
Experiment: protein stability index of a GFP-peptide fusion (GPS, HEK-293T) (PSI 1-6); higher = more stable;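 further: lentivirally expressed fusions sorted by FACS into six bins by GFP to DsRed ratio, PSI derived from sequencing read proportions per bin multiplied by bin number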
Conditions: c terminus: a fixed tail appended
Please respond with reported protein stability index for every item in the list.
One number for each entry.

# count of solved cases: 3
L9M ... 1.95
A22L ... 2.05
L1T ... 2.03

Switching to the query record.
Return reported protein stability index. Input variant: `M13H`
2.04

# credit: the supplement of paper PMC10567573
